target_system: T1, recombinant human BCMA Fc(kih) (human, UniProt Q02223 4-53, site-specifically biotinylated at the C-terminal avi-tag ; Biotin on the avi-tag at the C-terminus of the Fc knob chain (tag and Fc left out).)
T1 construct: Knobs-into-holes heterodimer carrying one BCMA ectodomain; also called huBCMA Fc(kih); huBCMA; not shown: human IgG1 hinge-Fc knob chain with C-terminal avi-tag, and the unfused Fc hole chain
T1 chain: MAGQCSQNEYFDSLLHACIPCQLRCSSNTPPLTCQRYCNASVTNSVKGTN
protocol_notes: SPR (Biacore T200), IgG captured via anti-human Fab, BCMA Fc(kih) as analyte, 1:1 Langmuir fit
test_readout: Kd (nM)
Express the result in nM but write the number alone.

Measured Kd, Mab 42 IgG (antibody, V domains shown, also called antibody 42; clone 42) VH: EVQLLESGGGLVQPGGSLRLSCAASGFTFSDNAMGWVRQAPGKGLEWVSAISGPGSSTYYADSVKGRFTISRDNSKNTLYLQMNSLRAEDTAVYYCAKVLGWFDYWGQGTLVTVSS VL: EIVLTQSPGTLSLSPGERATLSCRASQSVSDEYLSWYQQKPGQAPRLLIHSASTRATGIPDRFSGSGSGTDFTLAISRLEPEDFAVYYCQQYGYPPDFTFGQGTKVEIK : 0.371

Looking up Mab 21 IgG (antibody, V domains shown, also called antibody 21) VH: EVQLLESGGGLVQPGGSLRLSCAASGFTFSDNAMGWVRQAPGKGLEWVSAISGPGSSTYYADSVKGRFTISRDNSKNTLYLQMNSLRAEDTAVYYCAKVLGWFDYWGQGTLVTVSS VL: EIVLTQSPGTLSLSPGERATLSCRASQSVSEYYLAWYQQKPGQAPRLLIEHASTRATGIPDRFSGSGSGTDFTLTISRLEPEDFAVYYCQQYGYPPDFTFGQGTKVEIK , I found its Kd recorded as 0.0516

Recorded result, Mab 22 IgG (antibody, V domains shown, also called antibody 22; clone 22) VH: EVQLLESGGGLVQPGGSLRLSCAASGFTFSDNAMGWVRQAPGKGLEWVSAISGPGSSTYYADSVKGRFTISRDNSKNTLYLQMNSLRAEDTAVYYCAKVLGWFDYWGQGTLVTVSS VL: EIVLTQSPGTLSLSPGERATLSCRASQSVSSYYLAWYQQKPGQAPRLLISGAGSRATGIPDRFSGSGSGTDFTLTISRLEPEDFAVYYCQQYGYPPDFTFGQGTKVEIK , Kd: 0.0633

Kd reading for Mab 39 IgG (antibody, V domains shown) VH: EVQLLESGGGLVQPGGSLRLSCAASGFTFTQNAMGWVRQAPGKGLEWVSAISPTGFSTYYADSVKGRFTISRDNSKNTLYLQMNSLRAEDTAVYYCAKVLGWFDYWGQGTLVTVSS VL: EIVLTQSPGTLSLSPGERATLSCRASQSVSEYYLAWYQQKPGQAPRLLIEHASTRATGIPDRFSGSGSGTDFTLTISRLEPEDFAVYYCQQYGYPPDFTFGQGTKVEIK : 0.155

Kindly note the recorded Kd for Mab 27 IgG (antibody, V domains shown) VH: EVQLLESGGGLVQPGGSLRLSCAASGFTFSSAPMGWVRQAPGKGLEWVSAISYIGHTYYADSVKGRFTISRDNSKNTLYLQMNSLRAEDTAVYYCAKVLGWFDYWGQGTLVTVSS VL: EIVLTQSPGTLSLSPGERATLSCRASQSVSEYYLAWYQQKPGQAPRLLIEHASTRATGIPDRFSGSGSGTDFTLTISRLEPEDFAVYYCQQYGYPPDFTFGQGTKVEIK , which is 0.165

binder Mab 33 IgG (antibody, V domains shown) VH: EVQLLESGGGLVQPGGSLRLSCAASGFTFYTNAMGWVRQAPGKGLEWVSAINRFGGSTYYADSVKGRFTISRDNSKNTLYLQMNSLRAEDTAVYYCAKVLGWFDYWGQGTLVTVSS VL: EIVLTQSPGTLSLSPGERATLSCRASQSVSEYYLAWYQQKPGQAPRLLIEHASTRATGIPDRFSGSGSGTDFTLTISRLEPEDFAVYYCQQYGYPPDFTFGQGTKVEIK , Kd observed: 0.178
